# Tested on: ACSS2 (Homo sapiens)
# Test method notes: biochemical
pIC50: −log10 of the molar value.
Assay endpoint: pIC50

| Molecule | Tested on | Assay endpoint | Assay value |
| --- | --- | --- | --- |
| CC1=NN(c2ccc(C(F)(F)F)cc2)C(=O)C1C(=O)Nc1cccc(-c2ncco2)c1 (centres unmarked) | ACSS2 (Homo sapiens) | pIC50 | 6.00 to 7.00 |

--- query ---
Ask: Would you kindly share the measured pIC50 for COc1ccc(N2N=C(C)C(C(=O)Nc3cccc(C(C)(F)F)c3)C2=O)cc1-c1nnc(C)[nH]1 (centres unmarked) ?
Reply: 7.00 to 8.22

====

# Tested on: ACSS2 (Homo sapiens, UniProt Q9NR19)
# Sequence (Q9NR19 whole entry): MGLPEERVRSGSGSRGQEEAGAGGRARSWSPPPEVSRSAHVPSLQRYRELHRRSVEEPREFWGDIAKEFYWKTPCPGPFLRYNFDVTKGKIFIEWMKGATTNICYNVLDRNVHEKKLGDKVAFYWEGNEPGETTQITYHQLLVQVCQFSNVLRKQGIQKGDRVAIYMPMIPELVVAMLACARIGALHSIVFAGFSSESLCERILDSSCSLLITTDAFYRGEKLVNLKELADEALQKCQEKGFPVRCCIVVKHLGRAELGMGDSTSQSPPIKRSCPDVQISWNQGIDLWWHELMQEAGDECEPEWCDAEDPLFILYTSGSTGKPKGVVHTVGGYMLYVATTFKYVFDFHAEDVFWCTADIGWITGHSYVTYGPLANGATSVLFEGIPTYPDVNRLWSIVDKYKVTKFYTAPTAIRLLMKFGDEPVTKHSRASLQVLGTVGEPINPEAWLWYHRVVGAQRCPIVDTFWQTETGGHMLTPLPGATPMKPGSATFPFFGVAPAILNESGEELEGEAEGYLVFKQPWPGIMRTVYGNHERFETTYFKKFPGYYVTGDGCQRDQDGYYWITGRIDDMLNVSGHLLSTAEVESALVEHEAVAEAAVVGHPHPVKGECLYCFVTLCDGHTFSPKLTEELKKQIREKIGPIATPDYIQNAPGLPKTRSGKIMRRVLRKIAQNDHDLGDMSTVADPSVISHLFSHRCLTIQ
# Test method notes: cell-based
Assay endpoint: IC50

Ask: Quick check: IC50 of COc1ccc(N2N=C(C)C(C(=O)Nc3cccc(C(C)(F)F)c3)C2=O)cc1-c1ncco1 (centres unmarked) ?
Reply: 0.5 to 50 nM

Ask: CC1=NN(c2ccccc2)C(=O)C1C(=O)Nc1cccc(-c2cnccn2)c1 (centres unmarked) ?
Reply: 50 to 100 nM

Ask: CC1=NN(c2ccccc2)C(=O)C1C(=O)Nc1cccc(-c2ncc[nH]2)c1 (centres unmarked) , same question.
Reply: 0.5 to 50 nM

====

# Tested on: ACSS2 (Homo sapiens, UniProt Q9NR19)
# Test method notes: biochemical
# IC50 values compiled below

| Compound | Assay value |
| --- | --- |
| COC(=O)c1cccc(N2N=C(C)C(C(=O)Nc3cccc(-c4ncco4)c3)C2=O)c1 (stereo not shown) | 6 to 100 nM |

Ask: Recall the recorded IC50 for CC1=NN(c2ccccc2)C(=O)C1C(=O)Nc1cccc(-c2ncc[nH]2)c1 (stereo not shown) with ACSS2 (Homo sapiens, UniProt Q9NR19) and state it.
Reply: 6 to 100 nM

Ask: Input CC1=NN(c2ccc(OC(F)F)cc2)C(=O)C1C(=O)Nc1cc(C(C)(F)F)cc2ccoc12 (stereo not shown)
Reply: 6 to 100 nM

Ask: Moving on to CCc1cccc(NC(=O)C2C(=O)N(c3ccc(OCC4CC4)cc3)N=C2C)c1 (stereo not shown)
Reply: 6 to 100 nM

====

# Tested on: ACSS2 (Homo sapiens)
# Test method notes: biochemical
pIC50: −log10 of the molar value.
Assay endpoint: pIC50

The examples below pair each entry with its known result.
| Molecule | Assay value |
| --- | --- |
| CC1=NN(c2ccc(OC(F)(F)F)c(-c3ncco3)c2)C(=O)C1C(=O)Nc1cccc(C(C)(F)F)c1 (centres unmarked) | 8.22 to 11.00 |
| COc1ccc(N2N=C(C)C(C(=O)Nc3cccc(-c4ccco4)c3)C2=O)cn1 (centres unmarked) | 8.22 to 11.00 |
| N#Cc1ccc(OCCNC(=O)C(N)c2ccccc2)cc1 (centres unmarked) | < 4.00 |
| CC1=NN(c2ccccc2)C(=O)C1C(=O)Nc1cccc(-c2cncnc2)c1 (centres unmarked) | 6.00 to 7.00 |
| CC1=NN(c2ccc3ccn(-c4ccccc4)c3c2)C(=O)C1C(=O)Nc1cccc(C(C)(F)F)c1 (centres unmarked) | 8.22 to 11.00 |
| CC1=NN(c2ccc(C(F)(F)F)cc2)C(=O)C1C(=O)Nc1cccc(-c2ncc[nH]2)c1 (centres unmarked) | 7.00 to 8.22 |

Pending molecule:
Ask: // query pIC50 value for entry CC1=NN(c2ccccc2)C(=O)C1C(=O)Nc1cccc(-c2cccs2)c1 (centres unmarked)
Reply: 7.00 to 8.22

====

// pIC50 lookup, one value per entry
# Tested on: ACSS2 (Homo sapiens, UniProt Q9NR19)
# Test method notes: biochemical
pIC50: −log10 of the molar value.

Consider the following illustrative entries.
| Compound | Tested on | pIC50 |
| --- | --- | --- |
| COc1ccc(N2N=C(C)C(C(=O)Nc3cccc(-c4ncco4)c3)C2=O)cn1 (stereo not drawn) [compound 245] | ACSS2 (Homo sapiens, UniProt Q9NR19) | 7.00 to 8.22 |
| CCc1cccc(NC(=O)C2C=NN(c3ccccc3)C2=O)c1 (stereo not drawn) [compound 133] | ACSS2 (Homo sapiens, UniProt Q9NR19) | 6.00 to 7.00 |
| COc1ccc(N2N=C(C)C(C(=O)Nc3cccc(C(C)(F)F)c3)C2=O)cc1-c1ccncc1 (stereo not drawn) [compound 431] | ACSS2 (Homo sapiens, UniProt Q9NR19) | 8.22 to 11.00 |
| CCc1cccc(NC(=O)C2C(=O)N(c3ccc(C(F)(F)F)cc3)N=C2C)c1 (stereo not drawn) [compound 127] | ACSS2 (Homo sapiens, UniProt Q9NR19) | 7.00 to 8.22 |
| COc1ccc(N2N=C(C)C(C(=O)Nc3cccc(C(C)(F)F)c3)C2=O)cc1-c1ccccc1 (stereo not drawn) [compound 452] | ACSS2 (Homo sapiens, UniProt Q9NR19) | 8.22 to 11.00 |
| COc1ccc(N2N=C(C)C(C(=O)Nc3cccc(C(C)(F)F)c3)C2=O)cn1 (stereo not drawn) [compound 242] | ACSS2 (Homo sapiens, UniProt Q9NR19) | 8.22 to 11.00 |

Ask: Which pIC50 is reported for this compound? CC1=NN(c2ccccc2)C(=O)C1C(=O)Nc1cccc(C)c1 (stereo not drawn) [compound 212]
Reply: 4.00 to 6.00

Ask: Next: CC1=NN(c2ccccc2)C(=O)C1C(=O)Nc1cccc(Cl)c1 (stereo not drawn) [compound 210]
Reply: 7.00 to 8.22

Ask: // query: CC1=NN(c2ccccn2)C(=O)C1C(=O)Nc1ccccc1 (stereo not drawn) [compound 192]
Reply: < 4.00

Ask: Also CCc1cccc(NC(=O)C2C(=O)N(c3ccccc3)N=C2c2ccncc2)c1 (stereo not drawn) [compound 137] , if possible.
Reply: 4.00 to 6.00

Ask: // next record CC1=NN(c2cc(Cc3ccc(Cl)cc3)cc(-c3ccccc3)c2)C(=O)C1C(=O)Nc1cccc(C(C)(F)F)c1 (stereo not drawn) [compound 376]
Reply: 7.00 to 8.22

Ask: Repeat for the following compound: CCC(F)(F)c1cccc(NC(=O)C2C(=O)N(c3ccc(OC(F)F)c(-c4ccccn4)c3)N=C2C)c1 (stereo not drawn) [compound 377]
Reply: 8.22 to 11.00

Ask: Also CC1=NN(c2ccccc2)C(=O)C1C(=O)Nc1ccncc1 (stereo not drawn) [compound 216] , if possible.
Reply: 4.00 to 6.00

Ask: Proceed to COc1cccc(N2N=C(C)C(C(=O)Nc3cccc(-c4cnccn4)c3)C2=O)c1 (stereo not drawn) [compound 249]
Reply: 8.22 to 11.00

Ask: Another: CC1=NN(c2cccc(C(=O)OC(C)C)c2)C(=O)C1C(=O)Nc1cccc(-c2ncc[nH]2)c1 (stereo not drawn) [compound 235]
Reply: 7.00 to 8.22

Ask: Try the compound CCC1=NN(c2ccccc2)C(=O)C1C(=O)Nc1cccc(CC)c1 (stereo not drawn) [compound 136]
Reply: 4.00 to 6.00

Ask: Do the same for CC1=NN(c2ccc(OC(F)F)cc2)C(=O)C1C(=O)Nc1ccc2[nH]ccc2c1 (stereo not drawn) [compound 347] please
Reply: 6.00 to 7.00

Ask: Then this compound: COc1ccc(N2N=C(C)C(C(=O)Nc3cccc(-c4ncco4)c3)C2=O)cc1 (stereo not drawn) [compound 256]
Reply: 7.00 to 8.22

Ask: Another compound to look at: CCC(F)(F)c1cccc(NC(=O)C2C(=O)N(c3ccc(OC(F)F)c(-c4nnc(C)[nH]4)c3)N=C2C)c1 (stereo not drawn) [compound 370]
Reply: 8.22 to 11.00

Ask: Next compound: COc1ccc(N2N=C(C)C(C(=O)Nc3cccc(C(C)(F)F)c3)C2=O)cc1-c1cnccn1 (stereo not drawn) [compound 433]
Reply: 8.22 to 11.00

Ask: Entry to check: CCc1cc(NC(=O)C2C(=O)N(c3ccccc3)N=C2C)cs1 (stereo not drawn) [compound 284]
Reply: 6.00 to 7.00

Ask: What do you have for CC1=NN(c2cc(-c3ccccc3)cc(-c3ccccc3)c2)C(=O)C1C(=O)Nc1cccc(C(C)(F)F)c1 (stereo not drawn) [compound 401] ?
Reply: 7.00 to 8.22

Ask: Same lookup for CC1=NN(c2ccc(OC3CCCC3)cc2)C(=O)C1C(=O)Nc1cccc(C(C)(F)F)c1 (stereo not drawn) [compound 446] , please.
Reply: 8.22 to 11.00

Ask: Query CC1=NN(c2ccc(C(F)(F)F)cc2)C(=O)C1C(=O)Nc1cccc(C(C)(F)F)c1 (stereo not drawn) [compound 264] next
Reply: 8.22 to 11.00

Ask: Same lookup for COc1ccc(N2N=C(C)C(C(=O)Nc3cccc(C(C)(F)F)c3)C2=O)cc1-c1ncco1 (stereo not drawn) [compound 301] , please.
Reply: 8.22 to 11.00

Ask: Okay, and CC1=NN(c2ccc(C(F)(F)F)cc2)C(=O)C1C(=O)Nc1cccc(-c2ccco2)c1 (stereo not drawn) [compound 162] ?
Reply: 7.00 to 8.22

Ask: Ok, now CC1=NN(c2ccccc2)C(=O)C1C(=O)Nc1nccs1 (stereo not drawn) [compound 217]
Reply: < 4.00

Ask: What do we get for CNC(=O)C1C(=O)N(c2ccccc2)N=C1C (stereo not drawn) [compound 199] ?
Reply: < 4.00

Ask: Same for CC1=NN(c2ccccc2)C(=O)C1C(=O)Nc1cccc(C2CC2)c1 (stereo not drawn) [compound 119]
Reply: 8.22 to 11.00

Ask: Moving on to the next compound: CCc1cccc(NC(=O)C2C(=O)N(c3ccc4c(c3)OCO4)N=C2C)c1 (stereo not drawn) [compound 168]
Reply: 7.00 to 8.22

Ask: Same for CCC(=O)c1cccc(NC(=O)C2C(=O)N(c3ccccc3)N=C2C)c1 (stereo not drawn) [compound 117]
Reply: 8.22 to 11.00

Ask: Repeat with CCCOc1ccc(N2N=C(C)C(C(=O)Nc3cccc(CC)c3)C2=O)cc1 (stereo not drawn) [compound 158]
Reply: 7.00 to 8.22

Ask: Same question for CC1=NN(c2ccc(S(=O)(=O)N(C)C)cc2)C(=O)C1C(=O)Nc1ccccc1 (stereo not drawn) [compound 110] please.
Reply: 6.00 to 7.00

Hello, the source for this data is patent US10851064B2, in case you need it.
